The entries below come with measured melting point values attached.

Please review the entries below; each comes with its answer.
Query: Can you share its melting point? I mean this compound: COC(=O)/C(C#N)=C1\SCC(=O)N1c1ccc(C(=O)NCc2ccccc2)cc1 [Compound 39]
Result: 117.3 to 118.1 °C

Query: Can you share its melting point? I mean this compound: COC(=O)/C(C#N)=C1\SCC(=O)N1c1ccc(C(=O)Nc2ccc(I)cc2)cc1 [Compound 34]
Result: 315.8 to 316.6 °C

Query: Can you share its melting point? I mean this compound: COC(=O)/C(C#N)=C1\SCC(=O)N1c1ccc(-c2cccc(C#N)c2)cc1F [Compound 16]
Result: 191.2 to 191.3 °C

Others:
Query: Can you share its melting point? I mean this compound: COC(=O)/C(C#N)=C1\SCC(=O)N1c1ccc(C(=O)Nc2cccc(C(=O)O)c2)cc1 [Compound 41]
Result: 205.7 to 206.6 °C

----------
IC50 tested on hDHODH (Homo sapiens, UniProt Q02127): recorded values
Sequence (Q02127 29-395 limits assumed): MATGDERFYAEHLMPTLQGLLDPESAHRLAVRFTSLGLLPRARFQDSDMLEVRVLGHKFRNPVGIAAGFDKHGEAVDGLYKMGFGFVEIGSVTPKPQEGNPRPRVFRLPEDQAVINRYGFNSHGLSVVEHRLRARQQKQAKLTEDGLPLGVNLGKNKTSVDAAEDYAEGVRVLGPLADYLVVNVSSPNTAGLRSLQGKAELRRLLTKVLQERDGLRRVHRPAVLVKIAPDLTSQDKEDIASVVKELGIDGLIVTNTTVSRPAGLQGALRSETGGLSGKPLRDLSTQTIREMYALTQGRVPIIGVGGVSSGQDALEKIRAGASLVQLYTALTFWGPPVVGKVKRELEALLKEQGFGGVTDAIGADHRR

Query: Can you share its IC50? I mean this molecule: COC(=O)/C(C#N)=C1\SCC(=O)N1c1ccc(C(=O)Nc2ccccc2C)cc1
Result: > 10 µM

Query: Can you share its IC50? I mean this molecule: COC(=O)/C(C#N)=C1\SCC(=O)N1c1ccc(C(=O)NCc2ccccc2C(=O)O)cc1
Result: > 10 µM

Query: Can you share its IC50? I mean this molecule: COC(=O)/C(C#N)=C1\SCC(=O)N1c1ccc(-c2ccc(OC)cc2)cc1F
Result: 6.86 µM

Query: Can you share its IC50? I mean this molecule: COC(=O)/C(C#N)=C1\SCC(=O)N1c1ccc(Oc2ccccc2)cc1
Result: 9.43 µM

Query: Can you share its IC50? I mean this molecule: COC(=O)/C(C#N)=C1\SCC(=O)N1c1ccc(C(=O)NC2CCCCC2)cc1
Result: > 10 µM

Query: Can you share its IC50? I mean this molecule: COC(=O)/C(C#N)=C1\SCC(=O)N1c1ccc(Oc2cccc(C(F)(F)F)c2)cc1
Result: > 10 µM

Query: Can you share its IC50? I mean this molecule: COC(=O)/C(C#N)=C1\SCC(=O)N1c1ccc(C(=O)Nc2cccc(C(=O)O)c2)cc1
Result: > 10 µM

Query: Can you share its IC50? I mean this molecule: COC(=O)/C(C#N)=C1\SCC(=O)N1c1ccc(C(=O)Nc2ccc(Cl)cc2)cc1
Result: 7.5 µM

----------
Biological target: hDHODH (Homo sapiens, UniProt Q02127)
Construct: The plasmid pET-19b–hDHODH (Met30-Arg396) was transformed; inferred from the pET-19b vector and from purification on a chelating column with imidazole elution) (N); made in house; host or cells: E. coli BL21 (DE3)
Test: hDHODH enzyme inhibition assay (DCIP/UQ0, dihydroorotate-initiated)
Assay type: biochemical
Details: compound at 10 µM; 10 nM purified hDHODH
The entries below come with measured inhibition at 10 µM values attached.
Record the value in %, omitting the unit from your answer.

Query: Can you share its inhibition at 10 µM? I mean this compound: COC(=O)/C(C#N)=C1\SCC(=O)N1c1ccc(-c2cccc(C(F)(F)F)c2)cc1F
Result: 53.1

Others:
Query: Can you share its inhibition at 10 µM? I mean this compound: COC(=O)/C(C#N)=C1\SCC(=O)N1c1ccc(C(=O)Nc2ccccc2C)cc1
Result: 47

Query: Can you share its inhibition at 10 µM? I mean this compound: COC(=O)/C(C#N)=C1\SCC(=O)N1c1c(F)cc(-c2ccccc2)cc1F
Result: 33.9

Query: Can you share its inhibition at 10 µM? I mean this compound: COC(=O)/C(C#N)=C1\SCC(=O)N1c1ccc(C(=O)NCc2ccccc2)cc1
Result: 39.9

----------
The entries below come with measured melting point values attached.

Query: Can you share its melting point? I mean this compound: COC(=O)/C(C#N)=C1\SCC(=O)N1c1ccc(C(=O)Nc2ccccc2C(=O)O)cc1 [Compound 40]
Result: 261.8 to 262.5 °C

Query: Can you share its melting point? I mean this compound: COC(=O)/C(C#N)=C1\SCC(=O)N1c1ccc(C(=O)Nc2ccc(F)cc2)cc1 [Compound 30]
Result: 231.7 to 232.5 °C

Query: Can you share its melting point? I mean this compound: COC(=O)/C(C#N)=C1\SCC(=O)N1c1ccc(C(=O)Nc2ccc(C(C)(C)C)c(C(=O)O)c2)cc1 [Compound 44]
Result: 328.1 to 328.9 °C

Query: Can you share its melting point? I mean this compound: COC(=O)/C(C#N)=C1\SCC(=O)N1c1ccc(-c2ccc(OC)cc2)cc1F [Compound 15]
Result: 177.1 to 177.3 °C

Query: Can you share its melting point? I mean this compound: COC(=O)/C(C#N)=C1\SCC(=O)N1c1ccc(C(=O)Nc2ccc(Br)cc2)cc1 [Compound 33]
Result: 306.2 to 307.1 °C

Alright, here's another compound for you.
Query: Can you share its melting point? I mean this compound: COC(=O)/C(C#N)=C1\SCC(=O)N1c1ccc(Oc2ccccc2OC)cc1 [Compound 20]
Result: 181.2 to 182.1 °C

----------
The entries below come with measured melting point values attached.

Please review the entries below; each comes with its answer.
Query: Can you share its melting point? I mean this compound: COC(=O)/C(C#N)=C1\SCC(=O)N1c1cccc(Oc2ccccc2)c1 [Compound 23]
Result: 183.4 to 184.3 °C

Query: Can you share its melting point? I mean this compound: COC(=O)/C(C#N)=C1\SCC(=O)N1c1ccc(C(=O)Nc2ccc(C(C)(C)C)cc2)cc1 [Compound 37]
Result: 256.1 to 257 °C

Query: Can you share its melting point? I mean this compound: COC(=O)/C(C#N)=C1\SCC(=O)N1c1ccc(C(=O)Nc2ccccc2C)cc1 [Compound 29]
Result: 274.1 to 275 °C

Alright, here's another compound for you.
Query: Can you share its melting point? I mean this compound: COC(=O)/C(C#N)=C1\SCC(=O)N1c1ccc(C(=O)NCc2ccccc2C(=O)O)cc1 [Compound 42]
Result: 217.3 to 218.1 °C

----------
pIC50 tested on hDHODH (Homo sapiens): recorded values
A value of pIC50 is the negative decimal logarithm of a concentration given in moles per litre.

Please review the entries below; each comes with its answer.
Query: Look up pIC50 with hDHODH (Homo sapiens) for this molecule: COC(=O)/C(C#N)=C1\SCC(=O)N1c1ccc(-c2ccccc2OC)cc1F
Result: 5.18

Query: Look up pIC50 with hDHODH (Homo sapiens) for this molecule: COC(=O)/C(C#N)=C1\SCC(=O)N1c1ccc(C(=O)Nc2ccc(F)cc2)cc1
Result: 5.52

Query: Look up pIC50 with hDHODH (Homo sapiens) for this molecule: COC(=O)/C(C#N)=C1\SCC(=O)N1c1ccc(OCc2ccccc2)cc1
Result: 5.36

Others:
Query: Look up pIC50 with hDHODH (Homo sapiens) for this molecule: COC(=O)/C(C#N)=C1\SCC(=O)N1c1ccc(-c2cccc([N+](=O)[O-])c2)cc1F
Result: 5.36

Query: Look up pIC50 with hDHODH (Homo sapiens) for this molecule: COC(=O)/C(C#N)=C1\SCC(=O)N1c1ccc(-c2ccccc2C)cc1F
Result: 5.22

Query: Look up pIC50 with hDHODH (Homo sapiens) for this molecule: COC(=O)/C(C#N)=C1\SCC(=O)N1c1ccc(C(=O)Nc2ccc(F)c(C#N)c2)cc1
Result: 5.07

Query: Look up pIC50 with hDHODH (Homo sapiens) for this molecule: COC(=O)/C(C#N)=C1\SCC(=O)N1c1ccc(C(=O)Nc2ccc(C(C)(C)C)cc2)cc1
Result: 5.84

----------
reported endpoint: melting point

Query: Can you share its melting point? I mean this molecule: COC(=O)/C(C#N)=C1\SCC(=O)N1c1ccc(C(=O)Nc2ccc3c(C(C)=O)cccc3c2)cc1 [Compound 45]
Result: 275 to 275.8 °C

Query: Can you share its melting point? I mean this molecule: COC(=O)/C(C#N)=C1\SCC(=O)N1c1ccc(OCc2cccc(C(=O)O)c2)cc1 [Compound 26]
Result: 233.2 to 234.1 °C

Query: Can you share its melting point? I mean this molecule: COC(=O)/C(C#N)=C1\SCC(=O)N1c1ccc(C(=O)NCc2cccc(C(=O)O)c2)cc1 [Compound 43]
Result: 205.7 to 206.6 °C

Query: Can you share its melting point? I mean this molecule: COC(=O)/C(C#N)=C1\SCC(=O)N1c1ccc(-c2cccc([N+](=O)[O-])c2)cc1F [Compound 17]
Result: 179.2 to 179.9 °C

----------
The entries below come with measured inhibition at 10 µM values attached.
Target: hDHODH (Homo sapiens, UniProt Q02127)
Construct: The plasmid pET-19b–hDHODH (Met30-Arg396) was transformed; inferred from the pET-19b vector and from purification on a chelating column with imidazole elution) (N); made in house; host or cells: E. coli BL21 (DE3)
Test: hDHODH enzyme inhibition assay (DCIP/UQ0, dihydroorotate-initiated);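 further: recombinant hDHODH (Met30–Arg396) in HEPES pH 8.0 buffer with KCl and Triton X-100, reaction started by 500 µM dihydroorotate, inhibition from rate with inhibitor relative to uninhibited rate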
Format: biochemical
Details: compound at 10 µM; 10 nM purified hDHODH
Record the value in %, omitting the unit from your answer.

Query: Can you share its inhibition at 10 µM? I mean this compound: COC(=O)/C(C#N)=C1\SCC(=O)N1c1ccc(Oc2ccc(C(C)(C)C)cc2)cc1
Result: 18.1

Query: Can you share its inhibition at 10 µM? I mean this compound: COC(=O)/C(C#N)=C1\SCC(=O)N1c1ccc(C(=O)Nc2ccc(Br)cc2)cc1
Result: 42

Query: Can you share its inhibition at 10 µM? I mean this compound: COC(=O)/C(C#N)=C1\SCC(=O)N1c1ccc(-c2ccc(OC)cc2)cc1F
Result: 55.4

Query: Can you share its inhibition at 10 µM? I mean this compound: COC(=O)/C(C#N)=C1\SCC(=O)N1c1cccc(Oc2ccccc2)c1
Result: 34.4

Query: Can you share its inhibition at 10 µM? I mean this compound: COC(=O)/C(C#N)=C1\SCC(=O)N1c1ccc(Oc2cccc(C(F)(F)F)c2)cc1
Result: 29.7

Query: Can you share its inhibition at 10 µM? I mean this compound: COC(=O)/C(C#N)=C1\SCC(=O)N1c1ccc(C(=O)Nc2ccc(C(F)(F)F)cc2)cc1
Result: 24.5

Query: Can you share its inhibition at 10 µM? I mean this compound: COC(=O)/C(C#N)=C1\SCC(=O)N1c1ccc(C(=O)Nc2ccc3c(C(C)=O)cccc3c2)cc1
Result: 42.2

Query: Can you share its inhibition at 10 µM? I mean this compound: COC(=O)/C(C#N)=C1\SCC(=O)N1c1ccc(-c2cccc([N+](=O)[O-])c2)cc1F
Result: 50.7

Query: Can you share its inhibition at 10 µM? I mean this compound: COC(=O)/C(C#N)=C1\SCC(=O)N1c1ccc(-c2ccccc2OC)cc1F
Result: 54.7

Query: Can you share its inhibition at 10 µM? I mean this compound: COC(=O)/C(C#N)=C1\SCC(=O)N1c1ccc(C(=O)Nc2ccc3ccccc3c2)cc1
Result: 38.2
